Target: SARS-CoV-2 Kappa (B.1.617.1) RBD (SARS-CoV-2 Kappa (B.1.617.1), L452R)
Experiment: BLI
Quantity Measured: Kd

Illustrative cases are given below, each with its answer.
1) ZL525 (antibody, V domains shown) V domain 1: QVQLVQSGAEVKKPGSSMKVSCQASGGTFSSHPISWIRQAPGQGLEWMGRIIPIAGMTDYGQKFQGRITITADTSTSTSYVELRGLRSQDTAFYYCAKDVGYSDYGSAYYFHTWGQGTLITVSS V domain 2: QSVLTQPPSVSGAPGQRVTISCTGSNSNIGAGYDVHWYQQLPGTAPKLLIYRNNKRPSGVPDRFSGSKSDTSASLAITGLQAEDEAHYYCQSFDSSLGGSLFGGGTKLAVL
< 0.71 nM
2) BD56-597 (antibody, V domains shown) VH: QVQLVQSGAEVKKPGSSVKVSCKASGGTFSTYPISWVRQAPGQGVEWMGAIIPILGTTDYAQIFQGRVTITADKSTSTAYMELSSLRPEDTAVYYCARERGYSGYGAAYYFDSWGQGTLVTVSS VL: QSVLTQPPSVSGAPGQRVTISCTGSDSNIGAGYDVHWYQQLPGTAPKLLIYVNINRPSGVPDRFSGSKSATSASLAITGLQAEDEADYYCQSYDSSLSGVVFGGGTKLTVL
< 2.1 nM
3) R1-32 (antibody, V domains shown) VH: EVQLVESGAEVKKPGSSVKVSCKASGGTFSSYAISWVRQAPGQGLEWMGGIIPILGIANYAQKFQGRVTITADKSTSTAYMELSSLRSEDTAVYYCARENGYSGYGAAANFDLWGRGTLVTVSS VL: QSVLTQPPSVSGAPGQRVTISCTGSSSNIGAGYDVHWYQQLPGTAPKLLIYGNSNRPSGVPDRFSGSKSGTSASLAITGLQAEDEADYYCQSYDSSLSGSVFGGGTKLTVL
> 55 nM
4) C092 (antibody, V domains shown) VH: QVQLVQSGAEVKKPGSSVKVSCKASGGSFTNHFISWVRQAPGQGLEWMGRIIPILGTANYAQNFQGRVMMTADKSTSTAYMELSSLRSEDTAVYYCARDSGYSGYGSTYYMDVWGKGTTVTVSS VL: QSVLTQPPSVSGAPGQRVTISCTGSNSNIGAGYDVHWYQQLPGAAPKLLIYGNNNRPSGVPDRFSGSKSDTSASLAITGLQVEDEADYYCQSYDSSLSDSVFGSGTKVTVL
< 2.1 nM
5) BD56-104 (antibody, V domains shown) VH: QVQLVQSGAEVKTPGSSVKVSCKASGGTFGSHSITWVRQAPGQGLEWMGRVIPILGIPDFAESFQGRVAITADRSTSTAHMELSRLRSEDTAVYYCARDVGYSGSGSSNYFDSWGQGTLVTVSS VL: QSVLTQPPSVSGAPGQRVTISCTGSNSNIGAGYDVHWYRQLPGTAPKLLIYVNNNRPSGVPDRFSGSRSGASASLAITGLQAEDEAEYYCQSYDSSLSGSIFGGGTKLTVL
< 2.1 nM

// query Please report the recorded Kd for C807 (antibody, V domains shown) VH: QVQLVQSGAEAKKPGSSVKVSCKASGGTFKSYIINWVRQAPGQGLEWMGEIIPIFGTANYAQKFQGRVTSTADESTSTAYMELSSLKSEDTAVYYCARGRGYSGYGASYYFDYWGQGTLVTVSS VL: QSVLTQPPSVSGAPGQRVTISCTGSNSNIGAGYDVHWYQQLPGTAPKLLIYANSNRPSGVPDRFSGSKSGTSASLAITGLQAEDEADYYCQSYDSGLSGSVFGGGTKLTVL .
// result < 2.1 nM
